- Test system: RPMI-8226 leukemia
- Assay remarks: NCI tumour cell line growth inhibition, 48 h
Recorded endpoint: TGI

Q: # input compound: CC(=O)OCC12C(OC(C)=O)C(=O)C3C(OC(C)=O)C14OC3(C)COC(=O)c1cccnc1C(C)C(C)C(=O)OC(C(OC(C)=O)C2OC(C)=O)C4(C)O (stereo not drawn) ; wanted: its TGI
A: > 100 µM

Q: # input compound: `NC(N)=NS(=O)(=O)c1ccc(NC(=O)c2cccc3c(Nc4ccc(S(=O)(=O)N=C(N)N)cc4)c4ccccc4nc23)cc1` ; wanted: its TGI
A: > 100 µM

Q: # input compound: `COc1ccc(-c2cn(-c3cccc(C(=O)/C=C/c4cc(OC)c(OC)c(OC)c4)c3)c(=O)[nH]2)cc1` ; wanted: its TGI
A: > 100 µM

###

Provide the reported TGI of each item.
- System: HCT-116 colon
- Assay remarks: NCI tumour cell line growth inhibition, 48 h

Q: Lookup: TGI / HCT-116 colon / O=c1cc(O)ccn1C1C=C(CO)C(O)C1O (stereo not drawn)
A: > 625 µM

Q: Lookup: TGI / HCT-116 colon / `N#CC(C#N)=C1/C(=C/C=C/C=C/C=C/c2ccc(N3CCCCC3)s2)S(=O)(=O)c2ccccc21`
A: > 100 µM

Q: Lookup: TGI / HCT-116 colon / `Nc1ccc(C(=O)N/C(=C\c2cccc([N+](=O)[O-])c2)c2nc3ccccc3[nH]2)cc1`
A: > 100 µM

###

Provide the reported TGI of each item.
- Tested on: NCI-H460 lung
- Assay remarks: NCI tumour cell line growth inhibition, 48 h

Q: # input molecule: `CN(C)c1ccc(N=Nc2ccc(Br)cn2)c(O)c1` ; wanted: its TGI
A: > 34.7 µM

Q: # input molecule: COc1ccc2nc3n(c2c1)C(c1c(F)cccc1Cl)SC3 (stereo not given) ; wanted: its TGI
A: > 100 µM

Q: # input molecule: `O=C(O)c1ccccc1NS(=O)(=O)c1ccc([N+](=O)[O-])cc1` ; wanted: its TGI
A: > 100 µM

Q: # input molecule: `O=C(Nc1ccc(Cl)cc1)/C(=C(/[O-])c1ccc(Br)cc1)[n+]1cccc(-c2ccc(Cl)cc2)n1` ; wanted: its TGI
A: 16.5 µM

Q: # input molecule: `CC(C)S(=O)(=O)ON1C(=O)c2ccc(N(C)C)cc2C1=O` ; wanted: its TGI
A: 37.3 µM

###

- System: PC-3 prostate
- Assay remarks: NCI tumour cell line growth inhibition, 48 h
Recorded endpoint: TGI

Q: # input molecule: NCC(O)CSP(=O)(O)O (stereo not drawn) ; wanted: its TGI
A: > 100 µM

Q: # input molecule: `CSc1cc(Cl)c(C)cc1S(=O)(=O)NC(=O)Nc1ccc(Cl)cc1` ; wanted: its TGI
A: > 100 µM

Q: # input molecule: CC1(C)C2CCC(=O)C1C(OCc1ccccc1)C2 (stereo not drawn) ; wanted: its TGI
A: > 100 µM

###

Provide the reported TGI of each item.
- System: SNB-19 CNS
- Assay remarks: NCI tumour cell line growth inhibition, 48 h

Q: # input compound: CCC1(CN(C)C)CC/C(=C\c2ccc(OC)cc2)C1=O (stereo unspecified) ; wanted: its TGI
A: > 100 µM

Q: # input compound: `O=c1[nH]c2c3ccncc3cc(-c3cccc(Cl)c3)c2c2cnccc12` ; wanted: its TGI
A: > 100 µM

Q: # input compound: CCNC(=O)OCC1C2=C(C(=O)C(C)=C(N)C2=O)N2CC3C(N3C)C12OC (stereo unspecified) ; wanted: its TGI
A: > 100 µM

Q: # input compound: `CC(C)(C)c1cc(COc2c3sc(=S)sc3c(OCc3cc(C(C)(C)C)cc(C(C)(C)C)c3)c3sc(=S)sc23)cc(C(C)(C)C)c1` ; wanted: its TGI
A: > 100 µM

Q: # input compound: CC12C=C[C@]3(CC[C@@H]4[C@@](C)(CO)CCC[C@]4(C)C3CC1)C2 (stereo partly specified) ; wanted: its TGI
A: 36.2 µM

Q: # input compound: CC(=O)c1cccc(NC(=O)C(=O)C(C(=O)NN)c2ccccc2)c1 (stereo unspecified) ; wanted: its TGI
A: > 100 µM

###

Provide the reported TGI of each item.
- Tested on: HCT-15 colon
- Assay remarks: NCI tumour cell line growth inhibition, 48 h
Hi! Could you send only the number? It should be in µM, unit omitted.

Q: Lookup: TGI / HCT-15 colon / `O=C(Nc1ccc(-n2ccc3c(NC(=O)c4ccccc4)ncnc32)cc1)c1ccc(Cl)c(C(F)(F)F)c1`
A: 6.77

Q: Lookup: TGI / HCT-15 colon / `Cc1nc(Nc2ccc(Cl)cc2)sc1C(=O)NNC(=O)C(=O)NN`
A: 31.6

Q: Lookup: TGI / HCT-15 colon / `O=C(c1cccs1)c1c(C(F)(F)F)n([O-])c2ccc(Cl)cc2[n+]1=O`
A: 0.359

###

- Test system: HCT-15 colon
- Assay remarks: NCI tumour cell line growth inhibition, 48 h; in the data active means GI50 below about 0.43 µM; inactive means the rest
Log the outcome using a class from active, inactive

Q: Can you look up the reported call for CC(=O)O[C@H]1[C@@H]2OC(=O)C3(CC3)C2C[C@H]2O[C@]2(C)CC/C=C(\C)CCC[C@@H]1C (stereo not given in full) for me?
A: inactive

Q: Can you look up the reported call for `CN(C)c1ccc(N=Nc2ccc(Br)cn2)c(O)c1` for me?
A: active

Q: Can you look up the reported call for `COc1cccc(-n2ncc3c(N/N=C/c4cccc(F)c4)ncnc32)c1` for me?
A: inactive

Q: Can you look up the reported call for CN1C(=O)C23CC4(C56CC78SSC(CO)(C(=O)N7C5Nc5ccccc56)N(C)C8=O)c5ccccc5NC4N2C(=O)C1(CO)SS3 (stereo not given) for me?
A: active

Q: Can you look up the reported call for `C=C1C(=O)O[C@H]2[C@H]1CC/C(COC(=O)NCc1c[nH]c3ccc(Br)cc13)=C\CC[C@@]1(C)O[C@@H]21` for me?
A: inactive

###

Provide the reported TGI of each item.
- Test system: COLO 205 colon
- Assay remarks: NCI tumour cell line growth inhibition, 48 h

Q: Lookup: TGI / COLO 205 colon / C=CCCC1CCCCNC1=S (stereo not drawn)
A: > 10 µM

Q: Lookup: TGI / COLO 205 colon / Cc1c(Cl)ccc2c1NC(=O)C2(O)CC(=O)c1cccc2ccccc12 (stereo not drawn)
A: > 100 µM

Q: Lookup: TGI / COLO 205 colon / `Cc1ccc(-n2c(=S)[nH]c3ccc(Br)cc3c2=O)cc1`
A: > 100 µM

###

- System: HOP-92 NSCLC
- Assay remarks: NCI tumour cell line growth inhibition, 48 h
Recorded endpoint: TGI

Q: # input molecule: `COc1ccc2[nH]c(Cl)c(/C=C3/C(=O)N(c4ccccc4)c4ccccc43)c2c1` ; wanted: its TGI
A: > 100 µM

Q: # input molecule: `COc1nc2ncc([C@@H](O)[C@H](O)CO)nc2c(=O)n1C` ; wanted: its TGI
A: > 100 µM

Q: # input molecule: `O=C1C(=C2SC(c3ccccc3)(c3ccccc3)c3ccccc32)C(=O)c2ccccc21` ; wanted: its TGI
A: > 100 µM

Q: # input molecule: COC(=O)CCC(C)[C@H]1CCC2C3C(C[C@H](OC(C)=O)[C@@]21C)[C@@]1(C)CCC2(C[C@H]1C[C@H]3OC(C)=O)OOC1(CCC(C(C)(C)C)CC1)OO2 (some centres not stated) ; wanted: its TGI
A: > 100 µM

Q: # input molecule: `CCc1cccc(C)c1NC(=O)CCc1nnc(SC)o1` ; wanted: its TGI
A: > 100 µM

Q: # input molecule: `N#Cc1nc(/C=C/c2nc(C#N)c(N)o2)oc1N` ; wanted: its TGI
A: > 10 µM

Q: # input molecule: Nc1nc2c(ncn2C2C=CC(COS(N)(=O)=O)C2)c(=O)[nH]1 (configuration not stated) ; wanted: its TGI
A: > 100 µM

Q: # input molecule: CC1(C=O)C(=O)CCC2(C)C3CC(=O)OC3CCC12 (configuration not stated) ; wanted: its TGI
A: > 100 µM

Q: # input molecule: Cc1cn(C2OC(CO)C(O)C2O)c(=O)[nH]c1=O (configuration not stated) ; wanted: its TGI
A: > 1000 µM

Q: # input molecule: `COc1ccc(-n2cnc3c(NCC(=O)O)ncnc32)cc1` ; wanted: its TGI
A: > 100 µM

Q: # input molecule: `Cc1cc(C)c(-n2c(-c3ccccc3)cs/c2=N\N=C2C=C(C(C)(C)C)C(=O)C(C(C)(C)C)=C2)c(C)c1` ; wanted: its TGI
A: > 100 µM

Q: # input molecule: `N#CCCN(CCC#N)c1ccc(/C=C2\N=C(c3cc([N+](=O)[O-])ccc3Cl)N(S(=O)(=O)c3ccccc3)C2=O)cc1` ; wanted: its TGI
A: > 100 µM

###

Provide the reported TGI of each item.
- Test system: HT29 colon
- Assay remarks: NCI tumour cell line growth inhibition, 48 h

Q: # input compound: Cc1cc2nn(C3CCCO3)nc2cc1C (centres undefined) ; wanted: its TGI
A: > 100 µM

Q: # input compound: `Nc1nnnn1NC(=O)NCCCl` ; wanted: its TGI
A: > 10 µM

Q: # input compound: `S=c1nc(COc2ccc(Cl)cc2)[nH][nH]1` ; wanted: its TGI
A: > 100 µM

Q: # input compound: `COc1cccc(-n2ncc3c(N/N=C/c4cccc(F)c4)ncnc32)c1` ; wanted: its TGI
A: > 25 µM

Q: # input compound: `Nc1ccc(C(=O)N/C(=C\c2cccc([N+](=O)[O-])c2)c2nc3ccccc3[nH]2)cc1` ; wanted: its TGI
A: > 100 µM

Q: # input compound: `COc1c(O)ccc(C2=Cc3ccc(O)cc3OC2)c1OC` ; wanted: its TGI
A: > 89.5 µM

Q: # input compound: O=C1OC(CC(=O)c2ccc(Cl)cc2)C(Cl)=C1Cl (centres undefined) ; wanted: its TGI
A: > 100 µM

Q: # input compound: `CCOC(=O)/C=C(\C)c1ccc(Cl)cc1` ; wanted: its TGI
A: > 100 µM

Q: # input compound: `c1ccc([P+](c2ccccc2)(c2ccccc2)c2ccc([P+](c3ccccc3)(c3ccccc3)c3ccccc3)c3ccccc23)cc1` ; wanted: its TGI
A: > 100 µM
